# SYSTEM_TESTED: Hp 3-oxoacid CoA-transferase (Helicobacter pylori, UniProt P56006+P56007)
# Construct: second column endogenous enzyme in H. pylori lysate
# Sequence (P56006 whole entry): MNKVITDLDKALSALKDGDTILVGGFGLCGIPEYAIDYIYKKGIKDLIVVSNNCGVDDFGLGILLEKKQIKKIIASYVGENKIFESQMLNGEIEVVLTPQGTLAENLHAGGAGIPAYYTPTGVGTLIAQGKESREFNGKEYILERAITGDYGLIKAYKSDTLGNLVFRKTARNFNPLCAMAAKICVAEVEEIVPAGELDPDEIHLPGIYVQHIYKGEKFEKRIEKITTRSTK
# Sequence (P56007 whole entry): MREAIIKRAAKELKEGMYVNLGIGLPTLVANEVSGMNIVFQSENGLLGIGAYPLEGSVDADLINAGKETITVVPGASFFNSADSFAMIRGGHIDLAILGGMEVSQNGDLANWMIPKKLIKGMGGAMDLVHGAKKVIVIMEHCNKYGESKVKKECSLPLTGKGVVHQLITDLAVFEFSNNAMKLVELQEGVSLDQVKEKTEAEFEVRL
# PROTOCOL_SUMMARY: 3-oxoacid CoA transferase activity reconstituted in E. coli, in the presence of inhibitors
# Type: biochemical
# STUDY_CONDITIONS: substances (50 nM); lysate of E. coli transformed with pCoA-t; none = 2255 ± 7
Each item that follows carries a reported Specific activity (mU/mg ± SD), 3-oxoacid CoA transferase, E. coli transformed with pCOA-t.
Record the value in mU/mg, omitting the unit from your answer.

Q: Give reported Specific activity (mU/mg ± SD), 3-oxoacid CoA transferase, E. coli transformed with pCOA-t value for O=C(O)CC(=O)O [disodium malonate]
Ans: 1823

Q: Identify the reported Specific activity (mU/mg ± SD), 3-oxoacid CoA transferase, E. coli transformed with pCOA-t for the following entry. COC(=O)CCC(=O)O [methyl succinic ester]
Ans: 58

Q: Return reported Specific activity (mU/mg ± SD), 3-oxoacid CoA transferase, E. coli transformed with pCOA-t. Input compound: CC(CC(=O)O)C(=O)O (stereo not shown) [methyl succinic acid]
Ans: 67

Q: # return recorded Specific activity (mU/mg ± SD), 3-oxoacid CoA transferase, E. coli transformed with pCOA-t for entry O=C(O)CCCC(=O)O [glutaric acid]
Ans: 31

Q: Tell us which Specific activity (mU/mg ± SD), 3-oxoacid CoA transferase, E. coli transformed with pCOA-t value is on record for O=C(O)CC(S)C(=O)O (stereo not shown) [mercapto succinic acid]
Ans: 16

Q: Supply Specific activity (mU/mg ± SD), 3-oxoacid CoA transferase, E. coli transformed with pCOA-t value. Item: O=C(O)CC(O)C(=O)O (stereo not shown) [monosodium malate]
Ans: 131

Q: For the compound N[C@@H](CC(=O)O)C(=O)[O-].[Na+] [monosodium aspartate] , give its reported Specific activity (mU/mg ± SD), 3-oxoacid CoA transferase, E. coli transformed with pCOA-t.
Ans: 1859
